TARGET_OF_ASSAY: plasma purified human antithrombin III (AT-III), as complex with unfractionated heparin
PROTOCOL_TEXT: ratio of K0.5 to Catalyst Biosciences WT FIXa, AT-III/UFH inhibition
PARAMETER: K0.5-mut/K0.5-wt
Lab note: jot the number down without any unit.

Task: Item FIXa-I251S/R318Y/R338E/E410N (protein) chain 1: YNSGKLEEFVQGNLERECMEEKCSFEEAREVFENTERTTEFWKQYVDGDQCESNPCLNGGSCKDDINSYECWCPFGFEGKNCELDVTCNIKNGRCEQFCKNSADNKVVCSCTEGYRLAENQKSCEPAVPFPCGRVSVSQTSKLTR chain 2: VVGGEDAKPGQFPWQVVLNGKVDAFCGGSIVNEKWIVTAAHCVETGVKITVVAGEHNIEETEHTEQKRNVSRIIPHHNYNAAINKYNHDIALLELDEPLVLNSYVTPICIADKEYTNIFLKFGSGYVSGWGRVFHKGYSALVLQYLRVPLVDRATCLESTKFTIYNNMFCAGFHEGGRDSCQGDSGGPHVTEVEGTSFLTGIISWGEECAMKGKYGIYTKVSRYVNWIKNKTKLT : provide K0.5-mut/K0.5-wt
Result: 303

The values you see were collected from patent US20210238260.
